Cited source for all entries: the supplement of paper PMC10567573

B1: RPAIN (parent)
chain: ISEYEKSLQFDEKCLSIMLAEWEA

- Variants of: B1
- procedure_details: protein stability index of a GFP-peptide fusion (GPS, HEK-293T) (PSI 1-6); higher = more stable;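 further: lentivirally expressed fusions sorted by FACS into six bins by GFP to DsRed ratio, PSI derived from sequencing read proportions per bin multiplied by bin number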
- experimental_parameters: c terminus: a fixed tail appended
endpoint_name: protein stability index

mutation_list | endpoint_name | obs_value
W22I | protein stability index | 1.68
C14T | protein stability index | 1.71
E3H | protein stability index | 1.99
E21M | protein stability index | 1.9
S16I | protein stability index | 2.84
S2W | protein stability index | 2.59
L19N | protein stability index | 3.73
M18H | protein stability index | 2.41
L19W | protein stability index | 2.5
C14A | protein stability index | 1.9
M18Y | protein stability index | 2.39
L8Q | protein stability index | 3.1
K6V | protein stability index | 1.16
Y4I | protein stability index | 2.15
S16A | protein stability index | 2.32
K6Q | protein stability index | 2.06
L15V | protein stability index | 2.09
W22Q | protein stability index | 3.08
I1N | protein stability index | 1.69
A24T | protein stability index | 2
W22H | protein stability index | 3.98
